# TEST_TARGET: human B1R receptor (Homo sapiens, UniProt P46663)
# Construct: host or cells: CHO K1 cells (Chinese hamster ovary), stably transfected
# Sequence (P46663 1-353): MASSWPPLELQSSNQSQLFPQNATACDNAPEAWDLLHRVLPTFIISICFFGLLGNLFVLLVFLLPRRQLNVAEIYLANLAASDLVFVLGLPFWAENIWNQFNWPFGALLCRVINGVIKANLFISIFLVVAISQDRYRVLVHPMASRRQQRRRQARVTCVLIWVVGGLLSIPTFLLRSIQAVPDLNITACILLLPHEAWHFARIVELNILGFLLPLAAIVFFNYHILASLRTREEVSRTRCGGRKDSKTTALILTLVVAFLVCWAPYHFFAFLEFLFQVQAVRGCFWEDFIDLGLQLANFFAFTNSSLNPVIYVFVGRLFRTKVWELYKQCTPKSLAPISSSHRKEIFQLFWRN
# EXPERIMENTAL_PROTOCOL: Functional study on the bradykinin receptor 1 (B1R), FLIPR Ca2+ assay, hB1R cells
# Type: cell-based
# APPLIED_CONDITIONS: test substance 10 μM; hB1R CHO K1 cells; agonist Lys-Des-Arg9-bradykinin 0.5 nM; % inhibition compared with the maximum achievable inhibition
# From the text: The agonistic or antagonistic action of substances can be quantified on the bradykinin receptor 1 (B1R) of the species human and rat with ectopically expressing cell lines (CHO K1 cells) and with the aid of a Ca^2+-sensitive dye (Fluo-4) using a fluorescent imaging plate reader (FLIPR). […] The agonistic or antagonistic action of substances can be determined on the bradykinin receptor 1 (B1R) of the species human and rat using the following assay. […]
Measured B1R Antagonism, human [10 μM] % Inhibition accompanies every entry in the list below.
TEST_READOUT: B1R Antagonism, human [10 μM] % Inhibition

COMPOUND | TEST_TARGET | ASSAY_VALUE
COc1cc(C)c(S(=O)(=O)N2CCCCC2COCC(=O)N2CCN(C3CCN(C)CC3)CC2)c(C)c1 (stereo not drawn) [Example 8] | human B1R receptor (Homo sapiens, UniProt P46663) | 101.66%
COc1cc(C)c(S(=O)(=O)N2CCCCC2COCC(=O)N2Cc3ccncc3C2)c(C)c1 (stereo not drawn) [Example 206] | human B1R receptor (Homo sapiens, UniProt P46663) | 53.94%
CN1CCN(C2CCN(C(=O)COCC3CCCCN3S(=O)(=O)c3cccc4ccccc34)CC2)CC1 (stereo not drawn) [Example 230] | human B1R receptor (Homo sapiens, UniProt P46663) | 95.42%
O=C(COCC1CCCCN1S(=O)(=O)c1cccc2ccccc12)NCc1ccc(CN2CCOCC2)cc1 (stereo not drawn) [Example 61] | human B1R receptor (Homo sapiens, UniProt P46663) | 59.7%
COc1ccc(S(=O)(=O)N2CCCCC2COCC(=O)Nc2ccc(NC(=O)CN3CCCCC3)c(C)c2)cc1 (stereo not drawn) [Example 557] | human B1R receptor (Homo sapiens, UniProt P46663) | 29.73%
COc1cc(C)c(S(=O)(=O)N2CCCCC2COCC(=O)NCc2ccc(N3CCOCC3)cc2)c(C)c1 (stereo not drawn) [Example 21] | human B1R receptor (Homo sapiens, UniProt P46663) | 93.47%
COc1cc(C)c(S(=O)(=O)N2CCCCC2COCC(=O)N(CCN(C)C)Cc2ccccc2)c(C)c1 (stereo not drawn) [Example 377] | human B1R receptor (Homo sapiens, UniProt P46663) | 87.21%
COc1cc(C)c(S(=O)(=O)N2CCCCC2COCC(=O)NCC(c2ccc(C(F)(F)F)cc2)N2CCOCC2)c(C)c1 (stereo not drawn) [Example 249] | human B1R receptor (Homo sapiens, UniProt P46663) | 59.22%
O=C(COCC1CCCCN1S(=O)(=O)c1cccc2ccccc12)N1CCC(N2CCCCC2)CC1 (stereo not drawn) [Example 235] | human B1R receptor (Homo sapiens, UniProt P46663) | 102.3%
CN1CCC(N2CCN(C(=O)COCC3CCCCN3S(=O)(=O)c3c(Cl)cccc3Cl)CC2)CC1 (stereo not drawn) [Example 565] | human B1R receptor (Homo sapiens, UniProt P46663) | 104.82%
COc1cc(C)c(S(=O)(=O)N2CCCCC2COCC(=O)N2CCC(NCC(c3cccnc3)N3CCOCC3)CC2)c(C)c1 (stereo not drawn) [Example 136] | human B1R receptor (Homo sapiens, UniProt P46663) | 103.97%
COc1cc(C)c(S(=O)(=O)N2CCCCC2COCC(=O)Nc2cccc3cnccc23)c(C)c1 (stereo not drawn) [Example 258] | human B1R receptor (Homo sapiens, UniProt P46663) | 75.25%
Cc1cc(C)nc(CC2CCCN2C(=O)COCC2CCCCN2S(=O)(=O)c2cccc3ccccc23)c1 (stereo not drawn) [Example 240] | human B1R receptor (Homo sapiens, UniProt P46663) | 78.48%
COc1cc(C)c(S(=O)(=O)N2CCCCC2COCC(=O)NCc2ccc(N3CCOCC3)cc2)c(C)c1 (stereo not drawn) [Example 439] | human B1R receptor (Homo sapiens, UniProt P46663) | 48.25%
O=C(COCC1CCCCN1S(=O)(=O)c1cccc2ccccc12)N1CCCC1CN1CCCCC1 (stereo not drawn) [Example 64] | human B1R receptor (Homo sapiens, UniProt P46663) | 57.92%
